Hey, just so you know, these numbers are from patent US6706663B2.

system: ABUTH (Abutilon theophrasti); assay: Postemergence herbicidal evaluation; type: in vivo, Medic.; conditions: rate 0.0620 kg/ha
What Postemergence herbicidal rating, ABUTH was measured for each of the following?
One number for each entry.

For each listed entry, give its Postemergence herbicidal rating, ABUTH.
1. Cc1ccc(-c2nsc3ccc(-n4c(=O)cc(C(F)(F)F)n(C)c4=O)cc23)nc1 [Compound 42]
2. Cc1ccn(-c2nsc3ccc(-n4c(=O)cc(C(F)(F)F)n(C)c4=O)cc23)n1 [Compound 38]
3. COC(=O)COc1ccsc1-c1nsc2ccc(-n3c(=O)cc(C(F)(F)F)n(C)c3=O)cc12 [Compound 22]

1. 9.0
2. 9.0
3. 4.0

====

system: GALAP (Galium aparine); test: Postemergence herbicidal evaluation; type: in vivo; settings: postemergence, rate 0.0320 kg/ha
REPORTED METRIC: GALAP herbicidal rating
Give bare numbers.

>>> print(df.to_string())
                                   compound  number
0  Cn1c(C(F)(F)F)cc(=O)n(-c2ccc3snc(C4(C)OCCO4)c3c2)c1=O [Compound 54]     5.0
1  Cn1c(C(F)(F)F)cc(=O)n(-c2ccc3snc(C4OC(=O)C(C)(C)O4)c3c2)c1=O (centres unmarked) [Compound 71]     2.0
2  Cn1c(C(F)(F)F)cc(=O)n(-c2cc3c(C4OCCCO4)nsc3cc2F)c1=O [Compound 62]     9.0
3  COC1(c2nsc3ccc(-n4c(=O)cc(C(F)(F)F)n(C)c4=O)cc23)N=C(N(C)C)NC1=O (centres unmarked) [Compound 93]     9.0

For each listed entry, give its GALAP herbicidal rating.
1. Cn1c(C(F)(F)F)cc(=O)n(-c2ccc3snc(C4=NCCO4)c3c2)c1=O [Compound 75]
2. COCC1COC(c2nsc3ccc(-n4c(=O)cc(C(F)(F)F)n(C)c4=O)cc23)O1 (centres unmarked) [Compound 64]
3. C[C@@H]1C[C@H](C)OC(c2nsc3ccc(-n4c(=O)cc(C(F)(F)F)n(C)c4=O)cc23)O1 (some centres unmarked) [Compound 51]
4. Cn1c(C(F)(F)F)cc(=O)n(-c2ccc3snc(C4OCCCS4)c3c2)c1=O (centres unmarked) [Compound 34]

5.0
9.0
2.0
2.0

====

Tested on: ECHORC (Echinochloa oryzoides)
Experiment: Flooded paddy, preemergence weed control
Type: in vivo, Echinochloa oryzoides (Ard.) Fritsch.
Conditions: rate 0.0080 kg/ha, rated 3-4 weeks after treatment, 0-9 rating scale
Protocol: Results of herbicide evaluation are expressed on a rating scale (0-9). The scale is based upon a visual observation of plant stand, vigor, malformation, size, chlorosis and overall plant appearance as compared with a control. Preemergence herbicidal activity under flooded paddy conditions is determined as follows: plant seeds or propagating organs are planted in the top 0.5 cm of silt loam soil in 32 oz. plastic containers with a diameter of 10.5 cm and no drainage holes. […]
REPORTED METRIC: herbicidal rating, ECHORC

Worked examples, 3 compounds total:
>>> df
                                   compound  result
0  C=CC1COC(c2nsc3ccc(-n4c(=O)cc(C(F)(F)F)n(C)c4=O)cc23)O1 (stereo not shown)     5.0
1  CCCC1COC(c2nsc3ccc(-n4c(=O)cc(C(F)(F)F)n(C)c4=O)cc23)O1 (stereo not shown)     0.0
2  Cn1c(C(F)(F)F)cc(=O)n(-c2ccc3snc(C4OCCO4)c3c2)c1=O     3.5

For each listed entry, give its herbicidal rating, ECHORC.
1. Cn1c(C(F)(F)F)cc(=O)n(-c2ccc3snc(C4OCC(C)(C)CO4)c3c2)c1=O
2. Cc1cccnc1-c1nsc2cc(F)c(-n3c(=O)cc(C(F)(F)F)n(C)c3=O)cc12
3. Cn1c(C(F)(F)F)cc(=O)n(-c2ccc3snc(C4OCC(c5ccccc5)O4)c3c2)c1=O (stereo not shown)
4. CC1COC(c2nsc3ccc(-n4c(=O)cc(C(F)(F)F)n(C)c4=O)cc23)O1 (stereo not shown)
5. Cn1c(C(F)(F)F)cc(=O)n(-c2ccc3snc(C4OCC5(CO4)CO5)c3c2)c1=O (stereo not shown)
6. Cn1c(C(F)(F)F)cc(=O)n(-c2ccc3snc(C4OC(=O)C(C)(C)O4)c3c2)c1=O (stereo not shown)
7. COC(=O)COc1ccsc1-c1nsc2ccc(-n3c(=O)cc(C(F)(F)F)n(C)c3=O)cc12

5.0
3.0
8.0
5.0
0.0
0.0
0.0

For each listed entry, give its herbicidal rating, ECHORC.
1. Cn1c(C(F)(F)F)cc(=O)n(-c2ccc3snc(C4OC(C)(C)C(C)(C)O4)c3c2)c1=O
2. Cn1c(C(F)(F)F)cc(=O)n(-c2ccc3snc(-c4cccs4)c3c2)c1=O
3. CC(=O)N1CCSC1c1nsc2ccc(-n3c(=O)cc(C(F)(F)F)n(C)c3=O)cc12 (stereo not shown)
4. Cn1c(C(F)(F)F)cc(=O)n(-c2ccc3snc(-c4nccs4)c3c2)c1=O
5. C[C@@H]1OC(c2nsc3cc(F)c(-n4c(=O)cc(C(F)(F)F)n(C)c4=O)cc23)O[C@@H]1C (stereo partly shown)
6. Cn1c(C(F)(F)F)cc(=O)n(-c2ccc3snc(-c4ccoc4)c3c2)c1=O

[9.0, 2.0, 0.0, 3.0, 9.0, 0.0]

====

System: ORYSAT (Rice, Tebonnet)
Assay: Flooded paddy, post-transplant rice tolerance
Type: in vivo, Oryza sativa, (L.) Tebonnet
Settings: flooded paddy, post-transplant rice; rate 0.1250 kg/ha; rated 3-4 weeks after treatment; 0-9 rating scale
Method: Results of herbicide evaluation are expressed on a rating scale (0-9). The scale is based upon a visual observation of plant stand, vigor, malformation, size, chlorosis and overall plant appearance as compared with a control. The tolerance of transplanted rice to post-transplanted herbicide application is determined as follows: two ten-day-old rice seedlings (cv. Tebonnet) are transplanted into silt loam soil in 32 oz. plastic containers with a diameter of 10.5 cm and no drainage holes. […]
What herbicidal rating, ORYSAT (rice tolerance) was measured for each of the following?
Answers are plain numbers.

Worked examples, 5 molecules total:
In [3]: df
Out[3]:
                                   molecule  number
0  Cn1c(C(F)(F)F)cc(=O)n(-c2ccc3snc(C4OCCCS4)c3c2)c1=O (centres unmarked) [Compound 34]     9.0
1  C[C@@H]1OC(c2nsc3cc(F)c(-n4c(=O)cc(C(F)(F)F)n(C)c4=O)cc23)O[C@@H]1C (some centres unmarked) [Compound 63]     9.0
2  Cn1c(C(F)(F)F)cc(=O)n(-c2ccc3snc(C4OCCS4)c3c2)c1=O (centres unmarked) [Compound 31]     9.0
3  CSCC1COC(c2nsc3ccc(-n4c(=O)cc(C(F)(F)F)n(C)c4=O)cc23)O1 (centres unmarked) [Compound 84]     5.5
4  Cc1ccc(-c2nsc3ccc(N4C(=O)C5=C(CCCC5)C4=O)cc23)s1 [Compound 20]     2.0

For each listed entry, give its herbicidal rating, ORYSAT (rice tolerance).
1. CC(=O)N1CCSC1c1nsc2ccc(-n3c(=O)cc(C(F)(F)F)n(C)c3=O)cc12 (centres unmarked) [Compound 29]
2. COC(=O)C(C)Oc1ccsc1-c1nsc2ccc(-n3c(=O)cc(C(F)(F)F)n(C)c3=O)cc12 (centres unmarked) [Compound 23]
3. Cn1c(C(F)(F)F)cc(=O)n(-c2ccc3snc(C4OCC(CO)O4)c3c2)c1=O (centres unmarked) [Compound 73]

1: 7.0; 2: 3.0; 3: 5.0

====

Tested on: ABUTH (Abutilon theophrasti)
Assay: Postemergence herbicidal evaluation
Format: in vivo, Medic.
Conditions: postemergence, rate 0.0320 kg/ha
Procedure: In the tests, seedling plants are grown in jiffy flats for about two weeks. […] After spraying, the plants are placed on greenhouse benches and are cared for in accordance with conventional greenhouse procedures. From four to five weeks after treatment, the seedling plants are examined and rated according to the rating system set forth below. Where more than one test is involved for a given compound, the data are averaged. Results of herbicide evaluation are expressed on a rating scale (0-9). […]
What ABUTH herbicidal rating was measured for each of the following?
Give bare numbers.

For each listed entry, give its ABUTH herbicidal rating.
1. Cn1c(C(F)(F)F)cc(=O)n(-c2ccc3snc(C4(O)C(=O)NC(=N)C4(C)C)c3c2)c1=O (stereo not shown)
2. C[C@@H]1OC(c2nsc3cc(F)c(-n4c(=O)cc(C(F)(F)F)n(C)c4=O)cc23)O[C@@H]1C (stereo partly shown)
3. Cn1c(C(F)(F)F)cc(=O)n(-c2cc3c(C4OCCO4)nsc3cc2F)c1=O

1. 3.0
2. 9.0
3. 9.0

Provide the reported ABUTH herbicidal rating (system: ABUTH (Abutilon theophrasti)) for Cn1c(C(F)(F)F)cc(=O)n(-c2ccc3snc(C4OCCCS4)c3c2)c1=O (stereo not shown)
9.0

====

tested on: ZEAMX (Corn, Field); test: Preemergence herbicidal evaluation; assay type: in vivo, Zea mays, L.; details: Rate 0.2500 kg/ha; preemergence; rated 4-5 weeks after treatment
Could you please mark 1 for values of ZEAMX preemergence herbicidal rating below 8 and 0 for values at or above it?

Known results for molecules:
>>> print(df.to_string())
                                   molecule  qualitative_label
0  Cn1c(C(F)(F)F)cc(=O)n(-c2ccc3snc(-c4ccccn4)c3c2)c1=O [Compound 9]                  1
1  Cn1c(C(F)(F)F)cc(=O)n(-c2ccc3snc(-c4ncccn4)c3c2)c1=O [Compound 12]                  0
2  Cc1cc(C)c(-c2nsc3ccc(-n4c(=O)cc(C(F)(F)F)n(C)c4=O)cc23)s1 [Compound 27]                  1
3  Cn1c(C(F)(F)F)cc(=O)n(-c2ccc3snc(C(SCCO)SCCO)c3c2)c1=O [Compound 33]                  1

Determine whether this molecule shows ZEAMX preemergence herbicidal rating lower than 8 (ties excluded): Cn1c(C(F)(F)F)cc(=O)n(-c2ccc3snc(-c4ccsc4)c3c2)c1=O [Compound 1]
1

Determine whether this molecule shows ZEAMX preemergence herbicidal rating lower than 8 (ties excluded): C#CCOC(=O)COc1ccsc1-c1nsc2ccc(-n3c(=O)cc(C(F)(F)F)n(C)c3=O)cc12 [Compound 39]
1
